Biological target: CD28 (Homo sapiens, UniProt P10747)
Assay: Jurkat/IL2 + CHO/OKT3 +/- PD-L1 reporter assay: PD-L1-dependent CD28 costimulation
Format: cell-based
Set-up: host or cells: Jurkat cells expressing an IL-2-luciferase reporter
Details: Table E13; Jurkat/IL2 + CHO/OKT3/PD-L1; 5.0 nM
measurement_name: Fold Increase over WT CD80-IgV-Fe

{"molecule": "T13R/Q33L/E35D/M47V/T62S/V68M/L85M (protein, UniProt P33681 35-288, looked up, variant T13R Q33L E35D M47V T62S V68M L85M) T-lymphocyte activation …: VIHVTKEVKEVARLSCGHNVSVEELAQTRIYWLKDKKMVLTMMSGDVNIWPEYKNRTIFDISNNLSIMILALRPSDEGTYECVVMKYEKDAFKREHLAEVTLSVKADFPTPSISDFEIPTSNIRRIICSTSGGFPEPHLSWLENGEELNAINTTVSQDPETELYAVSSKLDFNMTTNHSFMCLIKYGHLRVNQTFNWNTTKQEHFPDNLLPSWAITLISVNGIFVICCLTYCFAPRCRERRRNERLRRESVRPV", "Fold Increase over WT CD80-IgV-Fe": 0.3}

Query: Quick one: Fold Increase over WT CD80-IgV-Fe of E24D/E35D/M47L/V68M/E95V/L97Q (protein, UniProt P33681 35-288, looked up, variant E24D E35D M47L V68M E95V L97Q) T-lymphocyte activation …: VIHVTKEVKEVATLSCGHNVSVEDLAQTRIYWQKDKKMVLTMMSGDLNIWPEYKNRTIFDITNNLSIMILALRPSDEGTYECVVLKYEKDAFKRVHQAEVTLSVKADFPTPSISDFEIPTSNIRRIICSTSGGFPEPHLSWLENGEELNAINTTVSQDPETELYAVSSKLDFNMTTNHSFMCLIKYGHLRVNQTFNWNTTKQEHFPDNLLPSWAITLISVNGIFVICCLTYCFAPRCRERRRNERLRRESVRPV ?
Reply: 2.7
